Value source: ChEMBL document CHEMBL4359825

# Test system: A549
# test.description: Anticancer activity against human A549 cells assessed as cell viability measured after 72 hrs by MTT assay (reference value: 100 +/- 9.6 %)
# Type: functional
# Parameters: concentration or dose not given beside the values
Threshold check on Activity: at or above 90% gives TRUE, strictly below gives FALSE.

A selection of reference data follows.
C[C@H]1[C@@H](Sc2nnnn2C)O[C@@H]2O[C@@]3(C)CC[C@H]4[C@H](C)CC[C@@H]1[C@@]24OO3 | TRUE
C[C@H]1[C@H](Sc2ccc([N+](=O)[O-])cc2)O[C@@H]2O[C@@]3(C)CC[C@H]4[C@H](C)CC[C@@H]1[C@@]24OO3 | FALSE
C[C@H]1[C@H](Sc2ccc3ccccc3n2)O[C@@H]2O[C@@]3(C)CC[C@H]4[C@H](C)CC[C@@H]1[C@@]24OO3 | TRUE
C[C@H]1[C@H](Sc2ccc(Cl)cc2)O[C@@H]2O[C@@]3(C)CC[C@H]4[C@H](C)CC[C@@H]1[C@@]24OO3 | FALSE
CCCCCCS[C@@H]1O[C@@H]2O[C@@]3(C)CC[C@H]4[C@H](C)CC[C@@H]([C@H]1C)[C@@]24OO3 | FALSE

Reported Activity at or above 90%? COC(=O)Cc1ccc(SC2O[C@@H]3O[C@@]4(C)CC[C@H]5[C@H](C)CC[C@@H]([C@H]2C)[C@@]35OO4)cc1 (stereo partly drawn) FALSE

Lookup `COC(=O)CS[C@H]1O[C@@H]2O[C@@]3(C)CC[C@H]4[C@H](C)CC[C@@H]([C@H]1C)[C@@]24OO3` TRUE

Lookup `C[C@H]1[C@H](Sc2ccc(C(=O)O)cc2)O[C@@H]2O[C@@]3(C)CC[C@H]4[C@H](C)CC[C@@H]1[C@@]24OO3` FALSE

Lookup `COC(=O)Cc1ccc(S[C@@H]2O[C@@H]3O[C@@]4(C)CC[C@H]5[C@H](C)CC[C@@H]([C@H]2C)[C@@]35OO4)cc1` FALSE

Lookup `CCCCCCS[C@H]1O[C@@H]2O[C@@]3(C)CC[C@H]4[C@H](C)CC[C@@H]([C@H]1C)[C@@]24OO3` FALSE

Lookup `C[C@H]1[C@@H](Sc2ccc(Cl)cc2)O[C@@H]2O[C@@]3(C)CC[C@H]4[C@H](C)CC[C@@H]1[C@@]24OO3` FALSE

Lookup `C[C@H]1[C@@H](Sc2ccc(C(=O)O)cc2)O[C@@H]2O[C@@]3(C)CC[C@H]4[C@H](C)CC[C@@H]1[C@@]24OO3` FALSE

Lookup `CCCCS[C@H]1O[C@@H]2O[C@@]3(C)CC[C@H]4[C@H](C)CC[C@@H]([C@H]1C)[C@@]24OO3` FALSE

Lookup `CCCCS[C@@H]1O[C@@H]2O[C@@]3(C)CC[C@H]4[C@H](C)CC[C@@H]([C@H]1C)[C@@]24OO3` TRUE

Lookup `C[C@H]1[C@@H](Sc2ccc3ccccc3n2)O[C@@H]2O[C@@]3(C)CC[C@H]4[C@H](C)CC[C@@H]1[C@@]24OO3` FALSE

* * *

# Tested on: LNCaP
# test.description: Anticancer activity against human LNCAP cells assessed as cell viability measured after 72 hrs by MTT assay (reference value: 100 +/- 5.0 %)
# Type: functional
# Set-up: concentration or dose not given beside the values
Please respond with reported Activity for every item in the list.
Numbers only, in %.

C[C@H]1[C@H](Sc2nnnn2C)O[C@@H]2O[C@@]3(C)CC[C@H]4[C@H](C)CC[C@@H]1[C@@]24OO3 | 78

Below is a list of compounds. For each, state its recorded Activity.
1. C[C@H]1[C@H](Sc2ccc3ccccc3n2)O[C@@H]2O[C@@]3(C)CC[C@H]4[C@H](C)CC[C@@H]1[C@@]24OO3
2. COC(=O)CS[C@@H]1O[C@@H]2O[C@@]3(C)CC[C@H]4[C@H](C)CC[C@@H]([C@H]1C)[C@@]24OO3
3. C[C@H]1[C@@H](Sc2ccc3ccccc3n2)O[C@@H]2O[C@@]3(C)CC[C@H]4[C@H](C)CC[C@@H]1[C@@]24OO3
4. C[C@H]1[C@@H](Sc2nnnn2C)O[C@@H]2O[C@@]3(C)CC[C@H]4[C@H](C)CC[C@@H]1[C@@]24OO3
5. C[C@H]1[C@H](Sc2ccc(Cl)cc2)O[C@@H]2O[C@@]3(C)CC[C@H]4[C@H](C)CC[C@@H]1[C@@]24OO3
6. C[C@H]1[C@@H](Sc2ccc(C(=O)O)cc2)O[C@@H]2O[C@@]3(C)CC[C@H]4[C@H](C)CC[C@@H]1[C@@]24OO3

77
60
41
97
37
41

* * *

# System: MDA-MB-231
# test.description: Anticancer activity against human MDA-MB-231 cells assessed as reduction in cell viability measured after 72 hrs by MTT assay
# Type: functional, cell-based
# applied.conditions: MDA-MB-231, 72 h
endpoint: pIC50
One number for each entry, as −log10 of the molar value.

COC(=O)Cc1ccc(S[C@@H]2O[C@@H]3O[C@@]4(C)CC[C@H]5[C@H](C)CC[C@@H]([C@H]2C)[C@@]35OO4)cc1 | 5.04

Shifting focus to the compound that follows.
Consider the compound shown here: `CCCCCCS[C@H]1O[C@@H]2O[C@@]3(C)CC[C@H]4[C@H](C)CC[C@@H]([C@H]1C)[C@@]24OO3` What is its recorded pIC50? 5.40

* * *

# Test system: LNCaP
# test.description: Anticancer activity against human LNCAP cells assessed as cell viability measured after 72 hrs by MTT assay (reference value: 100 +/- 5.0 %)
# Format: functional
# Design: concentration or dose not given beside the values
Please respond with reported Activity for every item in the list.
Your answer should be a number followed by the unit of measure.

Some entries whose results are on file:
CCCCS[C@@H]1O[C@@H]2O[C@@]3(C)CC[C@H]4[C@H](C)CC[C@@H]([C@H]1C)[C@@]24OO3 | 90%
CCCCS[C@H]1O[C@@H]2O[C@@]3(C)CC[C@H]4[C@H](C)CC[C@@H]([C@H]1C)[C@@]24OO3 | 47%
C[C@H]1[C@@H](Sc2ccc(Cl)cc2)O[C@@H]2O[C@@]3(C)CC[C@H]4[C@H](C)CC[C@@H]1[C@@]24OO3 | 37%

Shifting focus to the molecule that follows.
// map `CCCCCCS[C@@H]1O[C@@H]2O[C@@]3(C)CC[C@H]4[C@H](C)CC[C@@H]([C@H]1C)[C@@]24OO3` to recorded Activity (system: LNCaP) 36%

* * *

# Test system: MDA-MB-231
# test.description: Anticancer activity against human MDA-MB-231 cells assessed as cell viability measured after 72 hrs by MTT assay (reference value: 100 +/- 20.0 %)
# Type: functional
# Parameters: concentration or dose not given beside the values
Please respond with reported Activity for every item in the list.
Numbers only, in %.

Some entries whose results are on file:
C[C@H]1[C@H](Sc2ccc([N+](=O)[O-])cc2)O[C@@H]2O[C@@]3(C)CC[C@H]4[C@H](C)CC[C@@H]1[C@@]24OO3 | 98
COC(=O)CS[C@H]1O[C@@H]2O[C@@]3(C)CC[C@H]4[C@H](C)CC[C@@H]([C@H]1C)[C@@]24OO3 | 99
CCCCS[C@@H]1O[C@@H]2O[C@@]3(C)CC[C@H]4[C@H](C)CC[C@@H]([C@H]1C)[C@@]24OO3 | 90
C[C@H]1[C@H](Sc2ccc(Cl)cc2)O[C@@H]2O[C@@]3(C)CC[C@H]4[C@H](C)CC[C@@H]1[C@@]24OO3 | 97

Below is a list of compounds. For each, state its recorded Activity.
1. CCCCCCS[C@H]1O[C@@H]2O[C@@]3(C)CC[C@H]4[C@H](C)CC[C@@H]([C@H]1C)[C@@]24OO3
2. C[C@H]1[C@@H](Sc2ccc3ccccc3n2)O[C@@H]2O[C@@]3(C)CC[C@H]4[C@H](C)CC[C@@H]1[C@@]24OO3
3. CCCCCCS[C@@H]1O[C@@H]2O[C@@]3(C)CC[C@H]4[C@H](C)CC[C@@H]([C@H]1C)[C@@]24OO3

1. 39
2. 78
3. 72

Below is a list of compounds. For each, state its recorded Activity.
1. COC(=O)Cc1ccc(S[C@@H]2O[C@@H]3O[C@@]4(C)CC[C@H]5[C@H](C)CC[C@@H]([C@H]2C)[C@@]35OO4)cc1
2. C[C@H]1[C@@H](Sc2ccc(C(=O)O)cc2)O[C@@H]2O[C@@]3(C)CC[C@H]4[C@H](C)CC[C@@H]1[C@@]24OO3

1. 45
2. 64

Below is a list of compounds. For each, state its recorded Activity.
1. COC(=O)Cc1ccc(SC2O[C@@H]3O[C@@]4(C)CC[C@H]5[C@H](C)CC[C@@H]([C@H]2C)[C@@]35OO4)cc1 (stereo partly drawn)
2. C[C@H]1[C@H](Sc2ccc(C(=O)O)cc2)O[C@@H]2O[C@@]3(C)CC[C@H]4[C@H](C)CC[C@@H]1[C@@]24OO3
3. CCCCS[C@H]1O[C@@H]2O[C@@]3(C)CC[C@H]4[C@H](C)CC[C@@H]([C@H]1C)[C@@]24OO3
4. C[C@H]1[C@H](Sc2ccc3ccccc3n2)O[C@@H]2O[C@@]3(C)CC[C@H]4[C@H](C)CC[C@@H]1[C@@]24OO3

1. 96
2. 95
3. 71
4. 90
